Data origin: PubChem BioAssay (NCATS)

target.or.system: Rap guanine nucleotide exchange factor 4 (Homo sapiens)
assay.name: Confirmatory qHTS for antagonist of cAMP-regulated guanine nucleotide exchange factor 4 (EPAC2) (AID 1645885); note: nearly all actives have a fitted effect of over 25% in size
assay.conditions: EPAC2 Rap1B-BODIPY-GDP exchange fluorescence, biochemical; series mostly up to 12.7 µM
Inconclusive results are not listed. Calls of active or inactive are those of the source. Calls come from the whole dose curve; as a rule, active = well fitted inhibition curve with a large enough effect; inconclusive = small, poorly fitted or top-dose-only effect; inactive = no such curve, though single readings can be large or run the other way.
Choose one outcome from this list and give only that: label 1 = active, label 0 = inactive

Worked cases, answers included:
CCN(CC)c1ccc2cc(-c3nc(-c4ccccc4)no3)c(=O)oc2c1: label 1
Cc1cc(N2CCOCC2)ccc1/C=C1/SC(=O)NC1=O: label 0
CCOC(=O)N(C)c1c(CC)nc2c(OCc3ccc(C(F)(F)F)cc3)cccn12: label 0
O=C(N=c1ccn(-c2nc3ccccc3nc2NS(=O)(=O)c2ccccc2)cc1)c1ccccc1Cl: label 1
CCOC(=O)c1cc(-c2ccc(/C=C3/C(=O)N(c4ccc(C(=O)O)cc4)N=C3C)o2)ccc1Cl: label 0

### Prompt Could you kindly confirm the outcome this assay logged for O=C1CCCC2=C1C(c1ccc(O)c(O)c1)Nc1ccc3ccccc3c12 (stereo not given) ?
### Response label 0

### Prompt Could you kindly confirm the outcome this assay logged for CC(=O)C1=CCC(c2cccc(Cl)c2)N(S(=O)(=O)c2ccc(C)cc2)C1 (stereo not given) ?
### Response label 0

### Prompt Could you kindly confirm the outcome this assay logged for COc1ccc(C2c3ccsc3CCN2C(C)=O)cc1 (stereo not given) ?
### Response label 0

### Prompt Could you kindly confirm the outcome this assay logged for "COc1ccccc1/C=C1\SC(=S)N(NS(=O)(=O)c2ccccc2)C1=O" ?
### Response label 0

### Prompt Could you kindly confirm the outcome this assay logged for "Cc1c(CCC(=O)O)c(=O)oc2cc(OCc3ccccc3Br)ccc12" ?
### Response label 1

---

target.or.system: Rap guanine nucleotide exchange factor 3 (Homo sapiens) (UniProt O95398)
Sequence (O95398 whole entry, looked up): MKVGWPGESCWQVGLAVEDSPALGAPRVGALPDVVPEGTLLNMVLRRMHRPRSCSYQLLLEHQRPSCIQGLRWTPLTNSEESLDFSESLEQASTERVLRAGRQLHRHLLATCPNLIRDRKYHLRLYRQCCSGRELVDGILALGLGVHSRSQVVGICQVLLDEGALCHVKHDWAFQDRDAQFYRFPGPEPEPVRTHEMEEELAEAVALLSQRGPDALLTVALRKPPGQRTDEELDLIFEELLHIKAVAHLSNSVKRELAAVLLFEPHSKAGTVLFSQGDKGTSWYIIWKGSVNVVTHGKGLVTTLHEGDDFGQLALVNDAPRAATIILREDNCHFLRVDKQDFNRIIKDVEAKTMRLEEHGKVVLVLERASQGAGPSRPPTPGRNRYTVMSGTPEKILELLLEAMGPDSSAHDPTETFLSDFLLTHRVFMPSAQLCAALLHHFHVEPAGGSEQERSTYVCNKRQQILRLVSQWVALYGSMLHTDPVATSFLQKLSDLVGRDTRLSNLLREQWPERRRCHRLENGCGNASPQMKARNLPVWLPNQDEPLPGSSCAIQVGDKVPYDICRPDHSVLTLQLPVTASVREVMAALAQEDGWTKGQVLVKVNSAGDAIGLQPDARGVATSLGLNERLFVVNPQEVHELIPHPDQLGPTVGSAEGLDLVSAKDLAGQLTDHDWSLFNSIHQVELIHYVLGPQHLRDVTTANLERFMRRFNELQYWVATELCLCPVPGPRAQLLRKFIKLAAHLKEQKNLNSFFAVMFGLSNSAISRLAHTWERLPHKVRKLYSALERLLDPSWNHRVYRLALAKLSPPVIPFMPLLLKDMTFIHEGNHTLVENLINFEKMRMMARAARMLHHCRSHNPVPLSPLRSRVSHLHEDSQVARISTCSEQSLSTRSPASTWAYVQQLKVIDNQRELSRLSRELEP
assay.name: Counterscreen qHTS for antagonist of cAMP-regulated guanine nucleotide exchange factor 3 (EPAC1) (AID 1645888);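 note: fluorescence loss as bound BODIPY-GDP is released from Rap1B; % of control where 0% means no effect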
assay.conditions: Rap1B-BODIPY-GDP nucleotide exchange, fluorescence; series mostly up to 154 µM
Inconclusive results are not listed. The source made the active and inactive calls. The call rests on the fitted dose curve; in most records, active means well fitted inhibition curve with a large enough effect; inconclusive means small, poorly fitted or top-dose-only effect; inactive means no such curve, though single readings can be large or run the other way.
reported.endpoint: activity change, negative = inhibition

CCOC(=O)c1c(NC(=O)/C=C/c2ccc3c(c2)OCO3)sc(C)c1CC: inactive
CCn1c(O)c(/C=N/NC(=O)c2ccncc2)c(=O)n(CC)c1=S: inactive
C=CCn1c(SC(F)F)nc2scc(-c3ccco3)c2c1=O: inactive
O=C(N/N=C/c1c(O)ccc2ccccc12)c1[nH]ncc1Br: inactive
CCOC(=O)c1ccc2ncc(C(=O)OCC)c(Nc3ccc(C)c(Br)c3)c2c1: inactive
CC(C)CSC1=NSC2=NC(=O)/C(=C\c3coc4ccccc4c3=O)C(=N)N12: inactive
Cc1ccc(NC(=O)Cn2nnc(-c3nc(-c4ccncc4)no3)c2N)c(C)c1: inactive
O=C1C2CCCN2C(c2ccccc2F)N1c1cccc(Cl)c1 (configuration not stated): -15.2% [at 30.8 µM] (inactive)
COc1cccc(COC(=O)CSCC(=O)Nc2cccc(C)c2)c1OC: inactive
COc1cc(-c2cc(OC)c3c(C)oc(C)c3c(=O)c2)ccc1OC(=O)c1ccccc1F: inactive

### Prompt Please give measured activity change, negative = inhibition of the following entry: "CCCCc1nc(SCCOC)c2c(=O)n(C)c(=O)n(C)c2n1"
### Response -15.9% [at 30.8 µM] (inactive)

### Prompt Please give measured activity change, negative = inhibition of the following entry: "Cc1nn(-c2ccccc2)c(Cl)c1/C=N/Nc1ccc(S(=O)(=O)Nc2ccccc2C(=O)O)cc1[N+](=O)[O-]"
### Response inactive

### Prompt Please give measured activity change, negative = inhibition of the following entry: COc1ccc(C2=CC3=C(Br)C(=O)C(C)(OC(=O)c4cccs4)C(=O)C3=CO2)cc1 (configuration not stated)
### Response inactive

---

Tested on: JCK
assay.name: qHTS profiling for inhibitors of Plasmodium falciparum proliferation (AID 504749); note: nearly all actives have a fitted effect of over 60% in size
assay.conditions: P. falciparum in erythrocytes, SYBR Green DNA, 72 h; series mostly up to 28.7 µM
Inconclusive results are not listed. Active and inactive are the calls of the source. Calls follow the shape of the dose curve; as a rule, active = well fitted inhibition curve with a large enough effect; inconclusive = small, poorly fitted or top-dose-only effect; inactive = flat fitted curve, though single readings scatter. Bridge positions count the residues as written; N and C are the ends. Square brackets hold non-standard residues; d marks the D form. Peptide text beside a SMILES is read from it. * marks the point of attachment. Octanoyl(6-Me) = CCC(C)CCCCC(=O)*; Dab = NCC[CH](N)C(=O)O
Choose one outcome from this list and give only that: active, inactive

Worked cases, answers included:
O=NCc1ccc([N+](=O)[O-])o1: inactive
C1OCOCO1: inactive
CN(C)CCCCCCN(C)C: inactive

### Prompt Could you kindly confirm the outcome this assay logged for S=C1NC=NC2N=CNC12 (stereo not drawn) ?
### Response inactive

### Prompt Could you kindly confirm the outcome this assay logged for CCC(C)CCCCC(=O)NC(CCN)C(=O)NC(C(=O)NC(CCN)C(=O)NC1CCNC(=O)C(C(C)O)NC(=O)C(CCN)NC(=O)C(CCN)NC(=O)C(CC(C)C)NC(=O)C(Cc2ccccc2)NC(=O)C(CCN)NC1=O)C(C)O (stereo not drawn) ({Octanoyl(6-Me)}-[Dab]T[Dab][Dab][Dab]FL[Dab][Dab]T; lactam 4-C; configuration not given here) ?
### Response inactive

### Prompt Could you kindly confirm the outcome this assay logged for C=C[C@]1(C)C[C@@H](OC(=O)CSCCN(CC)CC)[C@]2(C)C(C)CC[C@]3(CCC(=O)[C@H]32)[C@@H](C)[C@@H]1O (stereo partly drawn) ?
### Response inactive

### Prompt Could you kindly confirm the outcome this assay logged for "CC(C)CN(C[C@@H](O)[C@H](Cc1ccccc1)NC(=O)O[C@H]1CCOC1)S(=O)(=O)c1ccc(N)cc1" ?
### Response inactive

### Prompt Could you kindly confirm the outcome this assay logged for "CC(C)CN(C[C@@H](OP(=O)(O)O)[C@H](Cc1ccccc1)NC(=O)O[C@@H]1CCOC1)S(=O)(=O)c1ccc(N)cc1" ?
### Response inactive

### Prompt Could you kindly confirm the outcome this assay logged for CO[C@@H]1[C@@H](OC2OC(C)C(OC3CC(C)(O)C(OC(=O)CC(C)C)C(C)O3)C(N(C)C)C2O)[C@@H](CC=O)C[C@@H](C)C(=O)/C=C\C2O[C@H]2C[C@@H](C)OC(=O)C[C@H]1OC(C)=O (stereo partly drawn) ?
### Response inactive

### Prompt Could you kindly confirm the outcome this assay logged for CCC(=O)O[C@@H](OP(=O)(CCCCc1ccccc1)CC(=O)N1C[C@H](C2CCCCC2)C[C@H]1C(=O)O)C(C)C (stereo partly drawn) ?
### Response inactive

### Prompt Could you kindly confirm the outcome this assay logged for Cc1cc(CC(C)CC(C)(C)C)n(O)c(=O)c1 (stereo not drawn) ?
### Response active

### Prompt Could you kindly confirm the outcome this assay logged for CC(=O)O[C@@]12CO[C@@H]1C[C@H](O)[C@@]1(C)C(=O)[C@H](O)C3=C(C)[C@@H](OC(=O)C(O)[C@@H](NC(=O)OC(C)(C)C)c4ccccc4)C[C@@](O)([C@@H](OC(=O)c4ccccc4)[C@H]21)C3(C)C (stereo partly drawn) ?
### Response inactive

### Prompt Could you kindly confirm the outcome this assay logged for "CC1(C)S[C@@H]2[C@H](NC(=O)COc3ccccc3)C(=O)N2[C@H]1C(=O)O" ?
### Response inactive

---

target.or.system: Rap guanine nucleotide exchange factor 4 (Homo sapiens) (UniProt Q8WZA2)
Sequence (Q8WZA2 whole entry, looked up): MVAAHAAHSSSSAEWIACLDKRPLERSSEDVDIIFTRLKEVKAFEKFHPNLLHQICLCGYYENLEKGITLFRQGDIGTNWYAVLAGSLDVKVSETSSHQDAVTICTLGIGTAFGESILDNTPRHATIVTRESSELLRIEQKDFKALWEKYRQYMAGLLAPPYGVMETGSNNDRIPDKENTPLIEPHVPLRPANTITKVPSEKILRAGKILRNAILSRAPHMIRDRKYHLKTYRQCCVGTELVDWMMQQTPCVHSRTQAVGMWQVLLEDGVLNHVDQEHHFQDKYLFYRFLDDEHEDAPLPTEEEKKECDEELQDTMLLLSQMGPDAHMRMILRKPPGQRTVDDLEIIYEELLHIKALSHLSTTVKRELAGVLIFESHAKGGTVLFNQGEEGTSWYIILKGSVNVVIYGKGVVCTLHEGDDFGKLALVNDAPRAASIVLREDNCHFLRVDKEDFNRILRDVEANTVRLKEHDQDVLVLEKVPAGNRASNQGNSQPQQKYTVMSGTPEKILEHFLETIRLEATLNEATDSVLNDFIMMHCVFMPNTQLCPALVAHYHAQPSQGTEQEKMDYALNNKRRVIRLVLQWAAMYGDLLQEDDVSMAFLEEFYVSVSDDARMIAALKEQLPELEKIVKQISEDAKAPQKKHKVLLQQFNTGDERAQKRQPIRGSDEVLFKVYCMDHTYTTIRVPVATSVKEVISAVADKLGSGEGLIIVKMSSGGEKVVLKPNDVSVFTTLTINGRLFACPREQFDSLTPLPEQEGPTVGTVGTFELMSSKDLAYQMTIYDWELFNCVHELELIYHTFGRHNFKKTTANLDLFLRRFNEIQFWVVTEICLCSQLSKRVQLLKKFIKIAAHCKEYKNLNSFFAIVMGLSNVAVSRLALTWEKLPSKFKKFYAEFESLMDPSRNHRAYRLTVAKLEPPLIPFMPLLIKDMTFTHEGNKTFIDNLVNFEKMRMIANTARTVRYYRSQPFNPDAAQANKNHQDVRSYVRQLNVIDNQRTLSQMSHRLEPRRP
assay.name: Confirmatory qHTS for antagonist of cAMP-regulated guanine nucleotide exchange factor 4 (EPAC2) (AID 1645885); note: nearly all actives have a fitted effect of over 25% in size
assay.conditions: EPAC2 Rap1B-BODIPY-GDP exchange fluorescence, biochemical; series mostly up to 12.7 µM
Inconclusive results are not listed. The source made the active and inactive calls. Calls come from the whole dose curve; as a rule, active = well fitted inhibition curve with a large enough effect; inconclusive = small, poorly fitted or top-dose-only effect; inactive = no such curve, though single readings can be large or run the other way.
Choose one outcome from this list and give only that: active, inactive

CCCCOc1cccc(C2C(C(=O)c3ccc(C)o3)=C(O)C(=O)N2c2nnc(C)s2)c1 (configuration not stated): inactive
O=C(Nc1cccc(S(=O)(=O)NCc2ccco2)c1)c1cc(-c2ccccc2)nc2ccccc12: inactive
CCOc1cccc(-c2c(C(=O)N/N=C/c3cccs3)nnn2-c2nonc2N)c1: inactive
Nc1ccc(SC(F)(F)F)cc1C(=O)c1ccccc1: inactive
O=C(CCC(=O)N1CCSc2ccccc21)NCc1cccc(Br)c1: inactive
COc1ccc(-c2cc3c(c4c2ccn4C)C2CCC3O2)cc1OC (configuration not stated): inactive
CC(C)(C)c1c(Cl)c(O)c(-c2ccccc2)c(=O)n1-c1ccccc1: inactive
CCCOc1ccc(/C=C2/C(=O)ON=C2C)cc1Cl: inactive
CCOc1cccc(C(=O)Nc2ccc3oc(Cc4ccc(Cl)cc4)nc3c2)c1: inactive
COc1ccc(-c2ccc(C(=O)NC(C)C)c3occc23)c(C)c1: inactive

### Prompt Could you kindly confirm the outcome this assay logged for "Cc1cc(C)c(S(=O)(=O)/N=C2\C=C(Nc3ccc(C(=O)O)cc3)C(=O)c3ccccc32)c(C)c1" ?
### Response inactive

### Prompt Could you kindly confirm the outcome this assay logged for "CCc1nc2c(OCc3ccc(C(=O)OC)cc3)cccn2c1N(C)C(=O)c1ccc(C)cc1" ?
### Response inactive

### Prompt Could you kindly confirm the outcome this assay logged for "CCN(c1ccccc1)S(=O)(=O)c1ccc(C(=O)Nc2ccncc2)cc1" ?
### Response inactive
